- Tested on: HT29 colon
- experimentalDetails: NCI tumour cell line growth inhibition, 48 h
quantityName: GI50

1) COc1ccc2c(c1)/C(=C\c1c(-c3ccccc3)nc3sccn13)C(=O)N2 : 8.17 µM
2) O=C1NN(C(=O)c2ccccc2)C(c2ccc(Cl)c(Cl)c2)=C/C1=C\c1ccccc1[N+](=O)[O-] : 2.3 µM
3) O=C(N/N=C\c1ccc(N(CCCl)CCCl)cc1)c1cccnc1 : > 100 µM
4) COc1cccc(C2SC(C)C(=O)N2NC(=O)C(O)c2ccccc2)c1 (stereo unspecified) : > 100 µM
5) CCOc1ccc(Nc2ccnc3cc(Cl)ccc23)cc1 : 3.88 µM
6) CC1(C)N=C(N)N=C(N)N1c1cccc(CCCCc2ccc(Cl)c(S(=O)(=O)F)c2)c1 : 0.441 µM
7) N#C[S-].[Ce+3].c1ccc(-c2ccccn2)nc1.c1ccc(-c2ccccn2)nc1.c1ccc(-c2ccccn2)nc1 : 10.6 µM
8) NC(CCl)=NCC12CC3CC(CC(C3)C1)C2 : 0.458 µM
9) CC[C@H](C)[C@H](NC(=O)c1ncccn1)C(=O)N(C)[C@H](C[C@@H](OC(C)=O)c1nc(C(=O)N[C@@H](Cc2ccccc2)C[C@H](C)C(=O)OC)cs1)C(C)C : 0.893 µM
10) O=C1/C(=C/c2ccc(Cl)cc2)N=C(c2ccccc2)N1c1cc(C(F)(F)F)ccc1Cl : 24.1 µM
11) N[C@@H](Cc1c[nH]c2ccccc12)C(=O)NC1CCN(Cc2c[nH]c3ccc(Cl)cc23)CC1 : 10.8 µM

* * *

- Tested on: SK-MEL-28 melanoma
- experimentalDetails: NCI tumour cell line growth inhibition, 48 h
Measured TGI, listed per entry.
quantityName: TGI

1. CCOP(=O)(OCC)/C(=C\n1ccc(=O)[nH]c1=S)C(=O)OC : > 100 µM
2. COC(=O)CC(C(C(=O)OCc1ccccc1)C(C)O)N1C(=O)OCC1c1ccccc1 (centres undefined) : > 100 µM
3. CC[C@H](C)[C@H](NC(=O)c1ncccn1)C(=O)N(C)[C@H](C[C@@H](OC(C)=O)c1nc(C(=O)N[C@@H](Cc2ccccc2)C[C@H](C)C(=O)OC)cs1)C(C)C : > 25 µM
4. Cc1cc(-c2nc3ccc(F)cc3s2)ccc1NC(=O)C(N)CCCCN (centres undefined) : 34.8 µM
5. COc1ccc2cc(C(=O)N3CCC([C@@H](C)C(=O)NCc4ccc5c(c4)OCO5)CC3)[nH]c2c1 : > 100 µM
6. CCOC(=O)NC(=O)c1cn(CCN(CCO)C(=O)NCCCCCCNC(=O)N(CCO)CCn2cc(C(=O)NC(=O)OCC)c(=O)[nH]c2=O)c(=O)[nH]c1=O : > 100 µM
7. CCCC(=O)Oc1c2ccsc2c(OC(=O)CCC)c2ccsc12 : 1.59 µM
8. CN(CCO)CCC1COc2ccccc2O1 (centres undefined) : > 10 µM
9. COC(=O)c1ccc(Oc2nc3ccc(C(F)(F)F)cc3nc2-c2ccccc2)cc1 : > 100 µM

* * *

- System: BT-549 breast
- experimentalDetails: NCI tumour cell line growth inhibition, 48 h
quantityName: TGI

1. Cc1ccc(C(=O)C2C=C(c3ccc(C)cc3)SC3C=CCC32)cc1 (centres undefined) : 37.3 µM
2. CC(C)(C)OC(=O)NCC(c1c[nH]c2cc(Br)ccc12)c1c[nH]c2cc(Br)ccc12 : 30.3 µM
3. CC1(C)N=C(N)N=C(N)N1c1cccc(CCCCc2ccc(Cl)c(S(=O)(=O)F)c2)c1 : 17.7 µM
4. Cc1cc(OP2(=O)NCc3ccncc3O2)ccc1Cl (centres undefined) : > 100 µM
5. Oc1ccc(Br)cc1C=NC1CCCCC1 : > 100 µM
6. O=S(=O)(O)c1ccc(N=Nc2ccc(N=Nc3c(O)ccc4ccc(S(=O)(=O)O)cc34)cc2)cc1 : > 100 µM
7. COc1nc2ccc(Cl)c(C(O)c3ccccc3)c2nc1OC (centres undefined) : 80.7 µM
8. CCCCCCCC(=O)Nc1nc2[nH]c(CN3CCN(Cc4cccc(I)c4)CC3)c(CN3CCN(Cc4cccc(I)c4)CC3)c2c(=O)[nH]1 : 1.83 µM
9. CC[C@@]1(O)C(=O)OCc2c1cc1n(c2=O)Cc2c-1nc1ccccc1c2/C=N\NC(=O)C(N)Cc1ccc(O)cc1 (some centres undefined) : > 31.6 µM
